System: 786-0 renal
protocolDescription: NCI tumour cell line growth inhibition, 48 h
quantityKind: TGI

Below are worked cases with known answers.
* O=C(/C=C\c1ccccc1-c1ccccc1)c1ccccc1 | > 100 µM
* Clc1ccc2nc(CCSCCc3nc4ccc(Cl)cc4[nH]3)[nH]c2c1 | 26.3 µM
* CO[C@H](C(=O)N[C@@H](CCCCNC(=O)OCc1ccccc1)C(=O)OC(C)(C)C)[C@@H]1Cc2cc3cc(OC4CC(OC5CC(O)C(O)C(C)O5)C(O)C(C)O4)c(C)c(O)c3c(O)c2C(=O)[C@H]1OC1CC(OC2CC(OC3CC(C)(O)C(O)C(C)O3)C(O)C(C)O2)C(O)C(C)O1 (stereo not given in full) | 1.88 µM

Query :: Tell me the measured TGI of `O=C1/C(=C/C(Cl)=C/c2ccccc2)SC(=S)N1CCc1ccc(O)cc1` , please.
Result :: 4.92 µM

Query :: State the recorded TGI for this entry: `COc1cccc2c1c1nc3cc(C)c(C)cc3nc1n2CCN(C)C`
Result :: 5.53 µM

* * *

Each entry below lists one item and its recorded GI50 value.
System: OVCAR-4 ovarian
protocolDescription: NCI tumour cell line growth inhibition, 48 h

Example entries and their recorded answers appear below.
• Cc1ccc(NC(=O)c2ccnc(N3CCCC3)c2)cc1-c1ccc(C(=O)NCC2CC2)cc1 = > 25000 nM
• CO[C@H](C(=O)N[C@@H](CCCCNC(=O)OCc1ccccc1)C(=O)OC(C)(C)C)[C@@H]1Cc2cc3cc(OC4CC(OC5CC(O)C(O)C(C)O5)C(O)C(C)O4)c(C)c(O)c3c(O)c2C(=O)[C@H]1OC1CC(OC2CC(OC3CC(C)(O)C(O)C(C)O3)C(O)C(C)O2)C(O)C(C)O1 (stereo partly drawn) = 3000 nM
• C=C[C@]1(C)C=C2C(=O)[C@@]3(O)OC(=O)[C@@]4(CCCC(C)(C)[C@H]34)[C@@]2(O)CC1 = 1050 nM
• O=C1/C(=C/C(Cl)=C/c2ccccc2)SC(=S)N1CCc1ccc(O)cc1 = 3190 nM
• COC(=O)Nc1nc2ccc(Oc3ccc(NC(=O)Nc4cccc(Cl)c4)cc3)cc2[nH]1 = 3050 nM
• Cc1ccc(C(=O)NC2CCCCC2)cc1-c1ccc(C(=O)NCC2CC2)cc1 = > 25000 nM
• Cc1ccc2sc3c(NCCCNCCO)nc4ccccc4c3c(=O)c2c1 = 1640 nM

Query :: Entry `COc1cccc2c1c1nc3cc(C)c(C)cc3nc1n2CCN(C)C` , system OVCAR-4 ovarian: what GI50 was measured?
Result :: 2060 nM

* * *

Tested on: DLD-1 colon
protocolDescription: NCI tumour cell line growth inhibition, 48 h
quantityKind: TGI (µM)
# value in µM; strip the unit string

- CNC1C(O)CC(OC2C/C=C(\C)C/C(C)=C/C=C/CCC(C)CNC(=O)/C=C/C=C/C2C)OC1C (stereo unspecified): 1.45
- CCCCCCCCCCCCNC1(C)CNCCCNCCNCCCNC1: 3.07
- CC1OC(O)CC(OC(=O)c2ccccc2)C1OC(=O)c1ccccc1 (stereo unspecified): 28.4

Turning to the following compound.
Query :: Suppose we examine the compound COc1cc(CCCC(O)COc2cccc3c2C2(O)CCCCCC32)cc(OC)c1 (stereo unspecified) ; what TGI value has been reported?
Result :: 36.6

* * *

Below, each of the compounds is paired with its reported TGI value.
Tested on: SF-268 CNS
protocolDescription: NCI tumour cell line growth inhibition, 48 h

- CCCCCCCCCCCC(=O)OCC1OC(n2cc(F)c(=O)[nH]c2=O)C(N)C(O)C1O (stereo not given): > 100 µM

Query :: // lookup TGI for `Cc1cccc(N=C2c3cc([N+](=O)[O-])ccc3-c3c2cc([N+](=O)[O-])cc3[N+](=O)[O-])c1`
Result :: 40.8 µM

Query :: TGI lookup needed for `O=C(O)/C(Cl)=C(\Cl)C(=O)Nc1ccccc1` , thanks.
Result :: > 100 µM

Query :: Please give the measured TGI for this compound: `O=C1/C(=C/c2ccccc2)CCCC/C1=C\c1ccccc1`
Result :: > 100 µM

Query :: Item CC1(C)C2CCC13C(=O)C1OC3(C2)C2C(=O)c3c(O)ccc(O)c3C(=O)C12 (stereo not given) has what recorded TGI?
Result :: > 100 µM

Query :: So what does the record say about TGI for `CNC(=O)CN(CC(N)=O)C(=O)NC` ?
Result :: > 100 µM

* * *

Tested on: NCI-H522 lung
protocolDescription: NCI tumour cell line growth inhibition, 48 h
Below, each of the compounds is paired with its reported TGI value.

Use these answered entries as a reference point.
- CCOn1cc(C2=C(c3c[nH]c4ccccc34)C(=O)NC2=O)c2ccccc21: > 33.6 µM
- O=C(NN1C(=O)c2ccccc2C1=O)c1ccccc1Nc1ccccc1C(=O)NN1C(=O)c2ccccc2C1=O: > 100 µM
- COc1ccccc1CNCc1nc2ccccc2[nH]1: > 100 µM
- C=C(Cl)C(Br)(CBr)CCC(Br)C(C)(C)Br (stereo not drawn): > 10 µM
- CCCCCCCCCCCC(=O)OCC1OC(n2cc(F)c(=O)[nH]c2=O)C(N)C(O)C1O (stereo not drawn): > 100 µM

Please turn your attention to the following entry.
Query :: Which TGI value belongs to Nc1ccc(C(=O)NN2C(=O)C(Cl)C2c2ccccc2O)cc1 (stereo not drawn) ?
Result :: > 100 µM

* * *

Test system: SW-620 colon
protocolDescription: NCI tumour cell line growth inhibition, 48 h
quantityKind: TGI

* CCn1c(SCC(=O)NNC(=S)Nc2ccc(F)cc2)nc2ccccc2c1=O | > 100 µM
* CCCCCCCCCCCC(=O)OCC1OC(n2cc(F)c(=O)[nH]c2=O)C(N)C(O)C1O (stereo unspecified) | > 100 µM
* CC(=O)Nc1ccc(/C=C/C(=O)c2sc(C(N)=S)nc2C)cc1 | > 100 µM
* O=C1/C(=C/C(Cl)=C/c2ccccc2)SC(=S)N1CCc1ccc(O)cc1 | 3.9 µM
* Cc1ccccc1NC(=O)/C(C#N)=N\Nc1nc[nH]c1C(N)=O | > 100 µM

Query :: Sample COC(=O)C(Cc1c[nH]c2ccccc12)NP(=O)(O)OCC1OC(n2cc(F)c(=O)[nH]c2=O)CC1O (stereo unspecified) — what was its TGI?
Result :: > 100 µM

* * *

TGI values for the compounds below.
Test system: K-562 leukemia
protocolDescription: NCI tumour cell line growth inhibition, 48 h
Where a SMILES comes first, the peptide text is derived from it. The star is where a group is joined. OBn = c1ccc(CO*)cc1

Query :: Form field - read-out: TGI; system: K-562 leukemia; submitted item: `COc1ccccc1CNCc1nc2ccccc2[nH]1`
Result :: > 100 µM

Query :: Field: TGI (K-562 leukemia). Entry: `Cc1ccccc1NC(=O)/C(C#N)=N\Nc1nc[nH]c1C(N)=O`
Result :: > 100 µM

Query :: Test system K-562 leukemia; read-out TGI; what value for COc1ccc(C(CC(=O)c2ccccc2)C(=O)c2ccc3c(c2)OCO3)cc1 (stereo not given) ?
Result :: > 100 µM

Query :: What is its TGI for K-562 leukemia? Entry: `C=CC1(c2ccc(Br)cc2)OCCCO1`
Result :: > 100 µM

Query :: Enter reported TGI observed with K-562 leukemia for COc1c(O)cc2c(c1O)C1O[C@H](CO)C(O)[C@H](O)[C@H]1OC2=O (stereo not given in full)
Result :: > 100 µM

Query :: What value of TGI on K-562 leukemia does `CNC(=S)NNC1=NCCCCN1` have?
Result :: > 100 µM

Query :: Query TGI on K-562 leukemia for `CN(CCO)c1nc2c(c(=O)[nH]1)CNCC2`
Result :: > 100 µM

Query :: # query: TGI | item `COc1ccc(/C(Cl)=C(\C=O)c2ccc(Cl)c(Cl)c2)cc1OC` | system: K-562 leukemia
Result :: > 100 µM

Query :: Query the reported TGI for K-562 leukemia; item: Cc1ccc2[nH]c(=O)c(C(C#N)c3ccccc3)nc2c1 (stereo not given)
Result :: > 100 µM

Query :: Param readout = TGI; param system = K-562 leukemia; param query = `Cc1ccc(C2=NO[C@@H]3C(=O)N(c4ccc(Cc5ccc(N6C(=O)[C@H]7C(c8ccc(C)cc8)=NO[C@H]7C6=O)cc5)cc4)C(=O)[C@H]23)cc1` ; response: value
Result :: > 100 µM

Query :: Form field: TGI recorded for NC(CCC(=O)OCc1ccccc1)C(=O)NC(CCC(=O)OCc1ccccc1)C(=O)O (stereo not given) (H-Glu(OBn)-Glu(OBn)-OH; configuration not given here) with K-562 leukemia (enter value)
Result :: > 100 µM

Query :: Any idea what TGI came out for O=c1[nH]c(=O)n(C2CC(O)C(CO)O2)c2nc3ccc4ccccc4c3nc12 (stereo not given) on K-562 leukemia?
Result :: > 100 µM

Query :: What reported TGI corresponds to `CCN(CC)c1ccc2c(c1)N=C1N=CC=CN1C2(c1ccc(N(C)C)cc1)c1ccc(N(C)C)cc1` on K-562 leukemia?
Result :: 5.96 µM

Query :: Which measured TGI belongs to `CCOC(=O)c1cc2ncccc2c2ccccc12` , tested on K-562 leukemia?
Result :: > 100 µM
